- METHOD SUMMARY: gradient 5% acetonitrile 3 min, to 50% in 2 min, to 85% in 15 min, held 3 min, 100 µL/min
- TEST SETTINGS: column: Zorbax Extend-C18 2.1 x 50 mm; eluents: water / acetonitrile, 0.1% formic acid
Each entry gets no (0) if its RP-LC retention time stays under 800 s, and yes (1) if its RP-LC retention time is 800 s or above.

INSERT INTO results (molecule, cat) VALUES
  ('O=C(c1ccccn1)N1CCC2(CC1)NC(=O)N(Cc1ccccc1Cl)C2=O', 'no (0)'),
  ('O=C(c1ccsc1)N1CCCn2nc(-c3ccc(Cl)cc3)cc2C1', 'yes (1)'),
  ('O=C(c1ccc2ncccc2c1)N1CCC(c2nc(C3CC3)n[nH]2)CC1', 'no (0)'),
  ('CCC(CO)NC(=O)C(=O)Nc1ccccc1SC (stereo not given)', 'no (0)'),
  ('CCc1nccn1Cc1noc(-c2ccc(C)c(C)c2)n1', 'no (0)'),
  ('CC(NC(=O)C1=CCN(Cc2ccccc2)CC1)c1ccccc1 (stereo not given)', 'no (0)'),
  ('CCn1c(=O)c(C)nc2cc(-c3noc(-c4ccc(F)c(F)c4)n3)ccc21', 'yes (1)');

* * *

- METHOD SUMMARY: gradient 5% acetonitrile 3 min, to 50% in 2 min, to 85% in 15 min, held 3 min, 100 µL/min
- TEST SETTINGS: column: Zorbax Extend-C18 2.1 x 50 mm; eluents: water / acetonitrile, 0.1% formic acid
Response field label: string, one of True (RP-LC retention time strictly below 700 s) or False.

INSERT INTO assay_data (molecule, cat) VALUES
  ('O=C(CCCc1nc2ccccc2s1)N1CCC(CCOc2ccccc2)C1 (stereo not given)', 'False'),
  ('CCc1nc(-c2cc(S(=O)(=O)N3CCC(C(=O)N4CCN(CC)CC4)CC3)c(C)s2)no1', 'True'),
  ('Cc1cc(C)cc(S(=O)(=O)N2CCC(c3nc(C(=O)N4CCCC4)c(C)o3)CC2)c1', 'False'),
  ('O=C(NCc1cc(F)cc(F)c1)C1CCN(c2cnc(N3CCCC3)nc2)CC1', 'True'),
  ('Cn1ncc(Br)c1C(=O)N1CCCC1c1cccc(F)c1 (stereo not given)', 'False');

* * *

- METHOD SUMMARY: gradient 5% acetonitrile 3 min, to 50% in 2 min, to 85% in 15 min, held 3 min, 100 µL/min
- TEST SETTINGS: column: Zorbax Extend-C18 2.1 x 50 mm; eluents: water / acetonitrile, 0.1% formic acid
Listed next: entries and their corresponding RP-LC retention time.
VALUE TYPE: RP-LC retention time (s)

INSERT INTO assay_data (compound, val) VALUES
  ('CCN(CC)C(=O)CN(C)C(=O)c1cc2c(s1)N(CC1CC1)CCCC2', 947),
  ('Cc1cccc(N2C(=O)CN(Cc3ccccc3)[C@H]3CS(=O)(=O)C[C@H]32)c1', 859),
  ('Cc1nc(-c2cn(C)c3ncccc23)sc1C(=O)NCc1ccccc1Cl', 942),
  ('C=CCN1C(=O)COc2ccc(-c3nc(NC(=O)c4ccc(C)cc4)sc3C)cc21', 1100),
  ('CCOC(=O)C1CCN(c2cc3c(cc2NC(=O)NC(C)CC)n(C)c(=O)n3C)CC1 (stereo not given)', 778),
  ('Cc1cc(C)nc(N2CCN(c3cccc(Cl)c3)CC2)n1', 1060),
  ('COc1ccc2c(c1)C=C(C(=O)NCC(=O)c1cccs1)C=CO2', 879),
  ('CCCN(CCC)S(=O)(=O)c1ccc(C(=O)Nc2nc(-c3ccc(F)cc3)cs2)cc1', 1240),
  ('CCOC(=O)c1c(C)oc2nc(C)nc(NCCCc3ccccc3)c12', 1280),
  ('Cc1nc(OCC(=O)Nc2cc(Cl)ccc2Cl)c2ccccc2n1', 836),
  ('Cc1nc(Cn2cccc2C(=O)NC2CCCCCC2)no1', 879),
  ('COc1ccc(Cc2nc(-c3ccc4oc(C)nc4c3)no2)c(Cl)c1', 1060),
  ('Cc1cc(CN2CCC(CNC(=O)NCc3cccs3)CC2)c(C)o1', 578),
  ('COc1ccc(-c2nsc(SCC(=O)Nc3ccc4c(c3)OCCO4)n2)cc1', 906),
  ('O=C(NCc1cccs1)C1CCN(C(=O)c2ncn3c2COC(c2ccc(F)cc2)C3)CC1 (stereo not given)', 736),
  ('O=C(c1ccc(F)cc1)N1CCCN(c2nnc3ccc(Cl)cn23)CC1', 689),
  ('CC1CCN(c2nnc(-c3nc(C4CC4)no3)c3ccccc23)CC1', 1140),
  ('O=C(Cn1nc(N2CCOCC2)c2ccccc2c1=O)Nc1ccc(C(F)(F)F)cc1', 898),
  ('O=C(COc1ccccc1-c1nnc(-c2ccccc2)o1)N1CCN(C(=O)c2ccco2)CC1', 760),
  ('Cc1nc(-c2csc(S(=O)(=O)N3CCCC(C(=O)NCc4ccc(F)cc4)C3)c2)no1 (stereo not given)', 892),
  ('CCC(C)NC(=O)c1cc2c(s1)N(CC1CC1)CCCC2 (stereo not given)', 1090),
  ('COc1ccc(NC(=O)Nc2nccn(-c3ccccc3)c2=O)cc1OC', 784),
  ('Cc1ccc(NS(=O)(=O)c2c(-c3nc(C4CCC4)no3)c(C)n(C)c2C)cc1', 989),
  ('O=C(Nc1cccc(-c2nnc3n2CCCC3)c1)c1ccsc1', 659),
  ('O=C(NCc1csc(-c2ccccc2)n1)C1CCCN(c2ccc(-c3ccco3)nn2)C1 (stereo not given)', 641),
  ('CC(C)(C)C(=O)Nc1cnc(N2CCCCCC2)nc1', 817),
  ('CCCNC(=O)C1CCCN(c2ccc(SCC(=O)Nc3c(F)cccc3F)nn2)C1 (stereo not given)', 628),
  ('CN(C)c1ccc(C(=O)NC2CCN(c3cc(-c4ccc(F)cc4)[nH]n3)C2)cc1 (stereo not given)', 733),
  ('O=C(c1ccoc1)N1CCCC1c1nc(-c2ccc(F)cc2F)no1 (stereo not given)', 869),
  ('Cc1noc(C2CCCCN2C(=O)c2cc(-c3ccccc3)n[nH]2)n1 (stereo not given)', 796),
  ('COc1ccc(OC)c(S(=O)(=O)NC2CCCN(c3ccc(=O)n(C)n3)C2)c1 (stereo not given)', 702),
  ('COc1ccc(-c2noc(-c3ccc(N4CCN(c5ncccn5)CC4)nc3)n2)cc1', 1150),
  ('Cc1cc2n(n1)CCC(=O)N2CCCC(=O)NC1CCCCC1', 661),
  ('CC(C)(C)NC(=O)NC1CCN(c2ccccc2)C1=O (stereo not given)', 722),
  ('O=C(Nc1ccc2c(c1)OCO2)C1CCN(c2cnc3nccnc3c2)CC1', 690),
  ('CCc1ccc(S(=O)(=O)c2cnc(N3CCN(c4cc(C)ccc4C)CC3)nc2N)cc1', 1400),
  ('Cc1nc2cc(NS(=O)(=O)c3cccc4cccnc34)ccc2s1', 753),
  ('Cc1cccn2cc(C(=O)NCc3ccc(F)cc3F)nc12', 733),
  ('CC(C)n1cnc2ccc(-c3noc(-c4cccc(F)c4)n3)cc21', 810),
  ('O=C(CN1N=C(C(=O)Nc2ccc(F)cc2)CCC1=O)Nc1ccc(F)c(F)c1', 838);
